- System: THP-1
- method-notes: Anti-inflammatory activity in Homo sapiens (human) THP1 cells assessed as inhibition of LPS-induced TNF-alpha production preincubated at 10 uM for 30 min before LPS treatment measured after 24 hr by ELISA
- Assay type: functional
Task for the reader: assign each of the following compounds its reported inhibition at 10 µM.
Give just the numeric value; % need not be written.

Task: # inhibition at 10 µM lookup, item CCOC(=O)C1=C(C)NC(=S)NC1c1ccc(NC(=S)Nc2ccc(OC)cc2)cc1 (centres undefined)
Output: 0

Task: Next compound up: CCOC(=O)C1=C(C)NC(=S)NC1c1ccc(NC(=S)Nc2c(F)cccc2C(F)(F)F)cc1 (centres undefined)
Output: 0

Task: Try the compound CCOC(=O)C1=C(C)NC(=S)NC1c1ccc(NC(=S)Nc2cc(F)cc(F)c2)cc1 (centres undefined)
Output: 55

Task: How about CCOC(=O)C1=C(C)NC(=S)NC1c1ccc(NC(=S)Nc2ccccc2Cl)cc1 (centres undefined) ?
Output: 0

Task: Another compound to look at: CCOC(=O)C1=C(C)NC(=S)NC1c1ccc(NC(=O)Nc2ccccc2Oc2ccccc2)cc1 (centres undefined)
Output: 0

Task: Same for CCOC(=O)C1=C(C)NC(=S)NC1c1ccc(NC(=S)Nc2cccc(C(F)(F)F)c2)cc1 (centres undefined)
Output: 0

Task: Please give the result for CCOC(=O)C1=C(C)NC(=S)NC1c1ccc(NC(=S)Nc2ccc(C(F)(F)F)cc2)cc1 (centres undefined) too.
Output: 8

Task: Repeat with CCOC(=O)C1=C(C)NC(=S)NC1c1ccc(NC(=S)Nc2cc(C(F)(F)F)ccc2Cl)cc1 (centres undefined)
Output: 78

Task: And for CCCCc1ccc(NC(=S)Nc2ccc(C3NC(=S)NC(C)=C3C(=O)OCC)cc2)cc1 (centres undefined) ?
Output: 0

* * *

- Test system: Fusarium solani
- method-notes: Antifungal activity against Fusarium solani by agar well diffusion method
- Format: functional
Give measured MIC for each item. Keep answers brief.
Output spec: scalar in µg/mL, unitless text.

Task: Which MIC value is on record for CCOC(=O)C1=C(C)NC(=S)NC1c1ccc(NC(=S)Nc2c(C)cccc2F)cc1 (configuration not stated) ?
Output: 65

Task: Likewise for CCOC(=O)C1=C(C)NC(=S)NC1c1ccc(NC(=S)Nc2ccc(C(F)(F)F)cc2)cc1 (configuration not stated) ?
Output: 10

Task: How about CCOC(=O)C1=C(C)NC(=S)NC1c1ccc(NC(=S)Nc2ccc(C(C)C)cc2)cc1 (configuration not stated) ?
Output: 70

Task: What about this compound? CCOC(=O)C1=C(C)NC(=S)NC1c1ccc(NC(=S)Nc2cccc(C(F)(F)F)c2)cc1 (configuration not stated)
Output: 15

Task: Now consider CCOC(=O)C1=C(C)NC(=S)NC1c1ccc([N+](=O)[O-])cc1 (configuration not stated) and answer again.
Output: 75

Task: Lookup CCOC(=O)C1=C(C)NC(=S)NC1c1ccc(N)cc1 (configuration not stated)
Output: 35

Task: Then what about the compound CCOC(=O)C1=C(C)NC(=S)NC1c1ccc(NC(=S)Nc2ccc(F)c(Cl)c2)cc1 (configuration not stated) ?
Output: 95

Task: Another compound to check: CCOC(=O)C1=C(C)NC(=S)NC1c1ccc(NC(=S)Nc2ccccc2Cl)cc1 (configuration not stated)
Output: 10

Task: Request: Clc1ccc(COC(Cn2ccnc2)c2ccc(Cl)cc2Cl)c(Cl)c1 (configuration not stated)
Output: 15

Task: Queued: CCOC(=O)C1=C(C)NC(=S)NC1c1ccc(NC(=S)Nc2c(C)cccc2Cl)cc1 (configuration not stated)
Output: 60

Task: Next: CCOC(=O)C1=C(C)NC(=S)NC1c1ccc(NC(=S)Nc2ccccc2F)cc1 (configuration not stated)
Output: 15

Task: Also CCOC(=O)C1=C(C)NC(=S)NC1c1ccc(NC(=S)Nc2ccc(C(F)(F)F)cc2Cl)cc1 (configuration not stated) ?
Output: 90

Task: Another: CCOC(=O)C1=C(C)NC(=S)NC1c1ccc(NC(=S)Nc2c(F)cccc2C(F)(F)F)cc1 (configuration not stated)
Output: 45

Task: Same for CCOC(=O)C1=C(C)NC(=S)NC1c1ccc(NC(=O)Nc2ccccc2Oc2ccccc2)cc1 (configuration not stated)
Output: 45

Task: Same for CCOC(=O)C1=C(C)NC(=S)NC1c1ccc(NC(=S)Nc2ccccc2C(F)(F)F)cc1 (configuration not stated)
Output: 20

Task: Record: CCOC(=O)C1=C(C)NC(=S)NC1c1ccc(NC(=S)Nc2ccccc2OC(F)(F)F)cc1 (configuration not stated)
Output: 10

Task: What would you report for CCOC(=O)C1=C(C)NC(=S)NC1c1ccc(NC(=S)Nc2ccc(F)c(C)c2)cc1 (configuration not stated) ?
Output: 95
